- experimentalSystem: human IgG (human)
- measurementNotes: competitive ELISA, Wt PpL immobilized, human IgG
outcomeMeasure: pKd
Expect pKd as a plain number equal to -log10 of the molar concentration.

Incoming: Which pKd is listed for L57H PpL (protein) MNIKFAGKETPETPEEPKEEVTIKVNLIFADGKIQTAEFKGTFEEATAEAYRYADLHAKVNGEYTADLEDGGNHMNIKFAGK ?
Outgoing: 5.38
